# ASSAY SUMMARY: Induction of tubulin polymerization at 10 uM by DAPI fluorescence method relative to control
For each entry below, report its Activity value.
All answers are understood in %, so give the number only.

[ask] Give the reported value of Activity for this record: C/C=C/C(=O)O[C@H]1C(=O)[C@@]2(C)[C@H]([C@H](OC(=O)c3ccccc3)[C@]3(O)C[C@H](OC(=O)[C@H](O)[C@@H](NC(=O)c4ccccc4)c4ccccc4)C(C)=C1C3(C)C)[C@]1(OC(C)=O)CO[C@@H]1C[C@@H]2O
[reply] 117

[ask] For CCC(=O)O[C@H]1C(=O)[C@@]2(C)[C@H]([C@H](OC(=O)c3ccccc3)[C@]3(O)C[C@H](OC(=O)[C@H](O)[C@@H](NC(=O)c4ccccc4)c4ccccc4)C(C)=C1C3(C)C)[C@]1(OC(C)=O)CO[C@@H]1C[C@@H]2O , write its Activity.
[reply] 114

[ask] Note Activity for the compound shown: CC(=O)O[C@@]12CO[C@@H]1C[C@H](OC(=O)C1CC1)[C@@]1(C)C(=O)[C@H](OC(=O)c3ccccc3)C3=C(C)[C@@H](OC(=O)[C@H](O)[C@@H](NC(=O)c4ccccc4)c4ccccc4)C[C@@](O)([C@@H](OC(=O)c4ccccc4)[C@H]21)C3(C)C
[reply] 91

[ask] Return value of Activity for input CC(=O)O[C@@]12CO[C@@H]1C[C@H](OC(=O)CCl)[C@@]1(C)C(=O)[C@H](OC(=O)OCc3ccccc3)C3=C(C)[C@@H](OC(=O)[C@H](O)[C@@H](NC(=O)c4ccccc4)c4ccccc4)C[C@@](O)([C@@H](OC(=O)c4ccccc4)[C@H]21)C3(C)C , no commentary.
[reply] 48

---

# ASSAY SUMMARY: Induction of tubulin polymerization at 0.1 uM by DAPI fluorescence method relative to control
Assign YES whenever Activity does not fall below 20%; assign NO whenever it does.

[ask] Is it the case that C/C=C/C(=O)O[C@H]1C(=O)[C@]2(C)[C@@H](OC(=O)CCl)C[C@H]3OC[C@@]3(OC(C)=O)[C@H]2[C@H](OC(=O)c2ccccc2)[C@]2(O)C[C@H](OC(=O)[C@H](O)[C@@H](NC(=O)c3ccccc3)c3ccccc3)C(C)=C1C2(C)C has Activity reaching or exceeding 20%?
[reply] YES

[ask] Can CC(=O)O[C@@]12CO[C@@H]1C[C@H](OC(=O)C=C(C)C)[C@@]1(C)C(=O)[C@H](OC(=O)OCc3ccccc3)C3=C(C)[C@@H](OC(=O)[C@H](O)[C@@H](NC(=O)c4ccccc4)c4ccccc4)C[C@@](O)([C@@H](OC(=O)c4ccccc4)[C@H]21)C3(C)C be said to have Activity at or above 20%?
[reply] NO

[ask] Would you say CCC(=O)O[C@H]1C(=O)[C@]2(C)[C@@H](OC(=O)CC)C[C@H]3OC[C@@]3(OC(C)=O)[C@H]2[C@H](OC(=O)c2ccccc2)[C@]2(O)C[C@H](OC(=O)[C@H](O)[C@@H](NC(=O)c3ccccc3)c3ccccc3)C(C)=C1C2(C)C shows Activity at minimum 20%?
[reply] NO

[ask] Could you tell me if the measured Activity of CC(=O)O[C@@]12CO[C@@H]1C[C@H](OC(=O)CCl)[C@@]1(C)C(=O)[C@H](OC(=O)c3ccccc3)C3=C(C)[C@@H](OC(=O)[C@H](O)[C@@H](NC(=O)c4ccccc4)c4ccccc4)C[C@@](O)([C@@H](OC(=O)c4ccccc4)[C@H]21)C3(C)C reaches 20% or more?
[reply] YES

[ask] Item CCC(=O)O[C@H]1C(=O)[C@]2(C)[C@@H](OC(=O)C3CC3)C[C@H]3OC[C@@]3(OC(C)=O)[C@H]2[C@H](OC(=O)c2ccccc2)[C@]2(O)C[C@H](OC(=O)[C@H](O)[C@@H](NC(=O)c3ccccc3)c3ccccc3)C(C)=C1C2(C)C with Activity of 20% or above?
[reply] NO

[ask] State whether the measured Activity reaches 20%, counting equality as reaching it, for CCCC(=O)O[C@H]1C[C@H]2OC[C@@]2(OC(C)=O)[C@H]2[C@H](OC(=O)c3ccccc3)[C@]3(O)C[C@H](OC(=O)[C@H](O)[C@@H](NC(=O)c4ccccc4)c4ccccc4)C(C)=C([C@@H](OC(=O)CC)C(=O)[C@]12C)C3(C)C
[reply] NO

[ask] Given CC(=O)O[C@@]12CO[C@@H]1C[C@H](OC(=O)c1ccccc1)[C@@]1(C)C(=O)[C@H](OC(=O)OCc3ccccc3)C3=C(C)[C@@H](OC(=O)[C@H](O)[C@@H](NC(=O)c4ccccc4)c4ccccc4)C[C@@](O)([C@@H](OC(=O)c4ccccc4)[C@H]21)C3(C)C , state whether its Activity is at least 20%.
[reply] NO

[ask] Given the entry CC(=O)O[C@@]12CO[C@@H]1C[C@H](OC(=O)CCl)[C@@]1(C)C(=O)[C@H](OC(=O)OCc3ccccc3)C3=C(C)[C@@H](OC(=O)[C@H](O)[C@@H](NC(=O)c4ccccc4)c4ccccc4)C[C@@](O)([C@@H](OC(=O)c4ccccc4)[C@H]21)C3(C)C , answer whether its Activity meets or surpasses 20%.
[reply] NO

[ask] Could you please find out whether CCC(=O)O[C@H]1C[C@H]2OC[C@@]2(OC(C)=O)[C@H]2[C@H](OC(=O)c3ccccc3)[C@]3(O)C[C@H](OC(=O)[C@H](O)[C@@H](NC(=O)c4ccccc4)c4ccccc4)C(C)=C([C@@H](OC(=O)OCc4ccccc4)C(=O)[C@]12C)C3(C)C has Activity that meets 20% or exceeds it?
[reply] NO

[ask] Hello, I need to know if CC(=O)O[C@@]12CO[C@@H]1C[C@H](O)[C@@]1(C)C(=O)[C@H](OC(=O)c3ccccc3)C3=C(C)[C@@H](OC(=O)[C@H](O)[C@@H](NC(=O)c4ccccc4)c4ccccc4)C[C@@](O)([C@@H](OC(=O)c4ccccc4)[C@H]21)C3(C)C has measured Activity not below 20%. Thanks!
[reply] YES

[ask] Form field: Activity at least 20%? Entry: CCC(=O)O[C@H]1C(=O)[C@]2(C)[C@@H](OC(C)=O)C[C@H]3OC[C@@]3(OC(C)=O)[C@H]2[C@H](OC(=O)c2ccccc2)[C@]2(O)C[C@H](OC(=O)[C@H](O)[C@@H](NC(=O)c3ccccc3)c3ccccc3)C(C)=C1C2(C)C
[reply] NO

[ask] Check this molecule for Activity at or above 20%: CC(=O)O[C@@]12CO[C@@H]1C[C@H](OC(=O)C1CC1)[C@@]1(C)C(=O)[C@H](OC(=O)OCc3ccccc3)C3=C(C)[C@@H](OC(=O)[C@H](O)[C@@H](NC(=O)c4ccccc4)c4ccccc4)C[C@@](O)([C@@H](OC(=O)c4ccccc4)[C@H]21)C3(C)C
[reply] NO

[ask] Given C/C=C/C(=O)O[C@H]1C(=O)[C@@]2(C)[C@H]([C@H](OC(=O)c3ccccc3)[C@]3(O)C[C@H](OC(=O)[C@H](O)[C@@H](NC(=O)c4ccccc4)c4ccccc4)C(C)=C1C3(C)C)[C@]1(OC(C)=O)CO[C@@H]1C[C@@H]2O , state whether its Activity is at least 20%.
[reply] YES

[ask] Please tell me: is the molecule COc1cccc(C(=O)O[C@H]2C[C@H]3OC[C@@]3(OC(C)=O)[C@H]3[C@H](OC(=O)c4ccccc4)[C@]4(O)C[C@H](OC(=O)[C@H](O)[C@@H](NC(=O)c5ccccc5)c5ccccc5)C(C)=C([C@@H](OC(=O)c5ccccc5)C(=O)[C@]23C)C4(C)C)c1 at or over 20% in terms of Activity?
[reply] YES

[ask] Check the entry CC(=O)O[C@H]1C(=O)[C@@]2(C)[C@H]([C@H](OC(=O)c3ccccc3)[C@]3(O)C[C@H](OC(=O)[C@H](O)[C@@H](NC(=O)c4ccccc4)c4ccccc4)C(C)=C1C3(C)C)[C@]1(OC(C)=O)CO[C@@H]1C[C@@H]2O : does Activity equal or exceed 20%?
[reply] NO

[ask] Activity >= 20% for CCCCC(=O)O[C@H]1C[C@H]2OC[C@@]2(OC(C)=O)[C@H]2[C@H](OC(=O)c3ccccc3)[C@]3(O)C[C@H](OC(=O)[C@H](O)[C@@H](NC(=O)c4ccccc4)c4ccccc4)C(C)=C([C@@H](OC(=O)CC)C(=O)[C@]12C)C3(C)C ?
[reply] NO

[ask] Has CC(=O)O[C@@]12CO[C@@H]1C[C@H](O)[C@@]1(C)C(=O)[C@H](OC(=O)OCc3ccccc3)C3=C(C)[C@@H](OC(=O)[C@H](O)[C@@H](NC(=O)c4ccccc4)c4ccccc4)C[C@@](O)([C@@H](OC(=O)c4ccccc4)[C@H]21)C3(C)C a recorded Activity greater than or equal to 20%?
[reply] YES

Origin of measurements: ChEMBL document CHEMBL1156410
